The entries below come with measured IC50 values attached.
test system: Sendai virus; assay: Replication of Sendai virus in 37RC cells, virus yield by haemagglutinin titration; format: cell-based; settings: Respirovirus muris; 50% inhibitory dose/concentration at 24 hours, Sendai virus in 37RC cells; read-out: ID50/μM
Output spec: scalar in µM, unitless text.

Solved entries (count: 3):
CCCCC1C=CC(=O)/C1=C/C(C)C (stereo not shown) : 0.3
CC(C)/C=C1/C(=O)C=CC1NC(=O)OC(C)(C)C (stereo not shown) : 1
CC(C)/C=C1/C(=O)C=CC1NC(=O)c1ccccc1 (stereo not shown) : 0.3

Look up IC50 of CC(C)(C)OC(=O)NC1C=CC(=O)/C1=C/c1ccc(Cl)cc1 (stereo not shown) and report it.
0.6

----------
assay: in vitro; type: cell-based; conditions: human
Endpoint: CC50 at 8 h
Numeric answer plus unit only.

Specify measured CC50 at 8 h for CC(C)/C=C1/C(=O)C=CC1NC(=O)c1ccccc1 (stereo not shown) [CTC-172] .
50 µM

----------
system: NF-κB; experiment: NF-κB-dependent luciferase reporter gene assay in HeLa κB-transformed cells stimulated with TPA; format: cell-based, human; conditions: concentration that halved NF-κB activity; HeLa reporter cells, TPA 25 ng/ml, 8 h treatment
Endpoint: IC50
Put down the number, then write its unit next to it.

Indicate the recorded IC50 value for this compound: COC(=O)[C@H](CS[C@@H]1CC(=O)C[C@H]1NC(=O)Oc1ccccc1)NC(=O)OC(C)(C)C
10 µM

----------
test: in vitro; conditions: human
Endpoint: CC50 at 24 h (µM)
Your answer is read as µM, so omit the unit and give the number.

CCOC(=O)NC1C=CC(=O)C1 (stereo not shown) : 104
CC(C)(C)OC(=O)NC1C=CC(=O)/C1=C/c1ccccc1 (stereo not shown) : 33
Cc1cc(C)c(/C=C2/C(=O)C=C[C@@H]2NC(=O)OC(C)(C)C)c(C)c1 : 25
CCOC(=O)N(C(=O)OC(C)(C)C)C1C=CC(=O)C1 (stereo not shown) : 233
O=C1C=CC(NC(=O)CCl)C1 (stereo not shown) : 79
CC(C)(C)OC(=O)N[C@@H](CS[C@@H]1CC(=O)/C(=C/c2ccccc2)[C@H]1NC(=O)OC(C)(C)C)C(=O)O : 25

Continue with the compound presented below.
Using known records, supply CC50 at 24 h for CC(C)(C)OC(=O)NC1C=CC(=O)/C1=C/c1ccc(Cl)cc1 (stereo not shown)
72

----------
Reported values of TD100/μM for individual entries
tested on: Monkey kidney 37RC cells; type: cell-based; conditions: concentration 100% toxic to uninfected 37RC cells, visually by microscopy
Quick reminder: number only, in µM, skip the unit.

Before answering, review these 8 worked examples.
CC(C)(C)OC(=O)NC1C=CC(=O)/C1=C/c1ccc(Cl)cc1 (centres unmarked) [CTC-247] : 10
O=C1C=CC(NC(=O)c2ccccc2)C1 (centres unmarked) [CTC-171, N-(4-Oxocyclopent-2-enyl)-benzamide] : 100
CC(C)(C)OC(=O)NC1C=CC(=O)C1 (centres unmarked) [CTC-132] : 100
CC(C)/C=C1/C(=O)C=CC1NC(=O)c1ccccc1 (centres unmarked) [CTC-172] : 10
CC1C=CC(=O)/C1=C/c1ccccc1 (centres unmarked) [CTC-150] : 50
CCCCC1C=CC(=O)/C1=C/C(C)C (centres unmarked) [CTC-145] : 10
CCCCC1C=CC(=O)/C1=C/CC(C)C (centres unmarked) [CTC-122] : 50
CC(C)/C=C1/C(=O)C=C[C@@H]1NC(=O)OC(C)(C)C [CTC-199] : 50

Give the measured TD100/μM for CC(C)/C=C1/C(=O)C=CC1NC(=O)OC(C)(C)C (centres unmarked) [CTC-121]
50

Look up and report measured TD100/μM for this entry: CC(C)/C=C1/C(=O)C=C[C@H]1NC(=O)OC(C)(C)C [CTC-195]
10

Give reported TD100/μM value for CC(C)(C)OC(=O)NC1C=CC(=O)/C1=C/c1ccccc1 (centres unmarked) [CTC-248]
10
